Origin of values: ChEMBL document CHEMBL1201862

Tested on: MOLT-4
Test: NCI tumour cell line growth inhibition, 48 h
Activity calls are given as the source filed them. Cut-off read from the data, not from the text of the source: active = GI50 up to about 1.1 µM and inactive = higher.
GI50 values for the compounds below.
MEASURED PROPERTY: GI50

INSERT INTO results (compound, assay_result) VALUES
  ('CN1N=C(c2ccncc2)OC1c1ccc(Cl)c(Cl)c1 (centres undefined)', '44.5 µM (inactive)'),
  ('COc1cc2c(cc1O)NC(=O)[C@@H]1C[C@@H](O)CN1C2=O', '37.6 µM (inactive)'),
  ('O=C1c2ccccc2-c2c1c1ccccc1c(=O)n2Cc1ccco1', '> 100 µM (inactive)'),
  ('CC(=O)NC1C(OCc2ccccc2)OC(CO)C(O)C1OCC(=O)N1CCCC1C(=O)NC(CCC(=O)NCCCCCNc1c2ccccc2nc2cccc([N+](=O)[O-])c12)C(N)=O (centres undefined)', '0.0561 µM (active)'),
  ('O=C(O)CN1C(=O)c2ccc(NC(=O)C(=O)O)cc2S1(=O)=O', '> 100 µM (inactive)'),
  ('CCCCOP(=O)(OCCCC)C(NS(=O)(=O)c1ccccc1)(C(=O)OCC)C(F)(F)F (centres undefined)', '20.2 µM (inactive)'),
  ('CCCCCc1cc(OC(=O)c2c(O)cc(OC)cc2CCCCC)cc(O)c1C(=O)O', '23.5 µM (inactive)'),
  ('CCOC(=O)C(NS(=O)(=O)c1ccccc1)(C(F)(F)F)P(=O)(OCC(C)C)OCC(C)C (centres undefined)', '> 100 µM (inactive)'),
  ('COc1ccc2c(c1)OCC1Cc3cccc(OC)c3OC21 (centres undefined)', '28 µM (inactive)');

====

System: KM12
Experiment: NCI tumour cell line growth inhibition, 48 h
The source made the active and inactive calls. Cut-off read from the data, not from the text of the source: active = GI50 up to about 1.1 µM and inactive = higher.
Listed here are compounds together with their documented GI50.
MEASURED PROPERTY: GI50

INSERT INTO assay_data (compound, system_name, assay_result) VALUES
  ('O=C(NCCCCCCNC(=O)n1cc(F)c(=O)[nH]c1=O)NCCCOCCOCCOCCOCCOCCOCCOCCOCCOCCOCCOCCOCCOCCOCCOCCOCCOCCOCCOCCOCCOCCCNC(=O)C(O)C(O)C(O)C(O)CO (stereo not drawn)', 'KM12', '31.7 µM (inactive)'),
  ('CC(=O)OCC1(C)C(OC(C)=O)CCC2(C)C(CC(OC(C)=O)C3=CCOC3=O)C(O)(CO)CCC12 (stereo not drawn)', 'KM12', '> 100 µM (inactive)'),
  ('O=C1C2SC34c5c2c2ccccc2n5CCC3CCCN14 (stereo not drawn)', 'KM12', '> 100 µM (inactive)'),
  ('CC(=O)NC(CCCN(Cc1ccccc1)C(=O)N(C)N=O)C(=O)NCc1ccccc1 (stereo not drawn)', 'KM12', '> 100 µM (inactive)'),
  ('c1ccc(Nc2nn3c(CCCCCCCCc4nnc5sc(Nc6ccccc6)nn45)nnc3s2)cc1', 'KM12', '32.2 µM (inactive)'),
  ('COc1ccc(NC(=O)CC(=O)n2nc(-c3ccccc3)c(/N=N/c3ccccc3C(=O)O)c2-c2ccccc2)cc1', 'KM12', '> 100 µM (inactive)'),
  ('COc1cc2cc(C(=O)N3CC(CCl)c4ccc([N+](C)(C)Cc5ccc([N+](=O)[O-])cc5)cc43)[nH]c2c(OC)c1OC (stereo not drawn)', 'KM12', '2.77 µM (inactive)'),
  ('CCSc1[nH]c(Nc2nc(-c3ccccc3)n(-c3ccccc3)n2)c(C(N)=O)c1C(N)=O', 'KM12', '> 10 µM (inactive)');
